Hi there, I'd appreciate the recorded TGI for every entry that follows.
# Tested on: SK-OV-3 ovarian
# measurement.notes: NCI tumour cell line growth inhibition, 48 h
Starred links: 1 amine or outer side, 2 acyl side, 3 side chain; linkers in the order of their positions; H or OH if unused. Positions of bridges follow the written chain, without caps; N, C: chain ends. Non-standard residues stand in square brackets, D forms with d. Residues, ends and D or L forms follow the SMILES beside them. Chains are numbered I, II in the order given. Actinocin(9to1) = Cc1c2oc3c(C)ccc(C(=O)[*:1])c3nc-2c(C(=O)[*:2])c(N)c1=O; NMeY = CN[CH](Cc1ccc(O)cc1)C(=O)O; Sar = CNCC(=O)O

[
  {
    "compound": "C=CCCON(C(=O)OC(C)(C)C)C(C)(C)C",
    "val": "> 100 µM"
  },
  {
    "compound": "COC(=O)/C=C(\\C(=O)OC)C1C(=O)Oc2c(C)c(=O)c3ccccc3n21 (configuration not stated)",
    "val": "> 100 µM"
  }
]

Below are some compounds; for each one, tell me its TGI.
1. Cc1c2oc3c(C)ccc(C(=O)NC4C(=O)NC(C(C)C)C(=O)N5CCCC5C(=O)N(C)CC(=O)N(C)C(Cc5ccc(O)cc5)C(=O)OC4C)c3nc-2c(C(=O)NC2C(=O)NC(C(C)C)C(=O)N3CCCC3C(=O)N(C)CC(=O)N(C)C(Cc3ccc(O)cc3)C(=O)OC2C)c(N)c1=O (configuration not stated) (I: TVP[Sar][NMeY] / II: TVP[Sar][NMeY]; ester I:1-I:C, II:1-II:C; linker I:N-II:N via Actinocin(9to1); configuration not given here)
2. O=C(O)COc1ccc2c(=O)c3sc4c(=O)c5ccccc5c(=O)c4c3c(=O)c2c1
3. CC1=C(C)CC2C(=O)N(c3cc(C(C)(C)C)ccc3C(C)(C)C)C(=O)C2C1 (configuration not stated)
4. CN1CC(=O)N2Cc3ccccc3-n3cccc3C2C1 (configuration not stated)
5. CO[C@@]12C[C@@H](C)C3=CCC(C)=C3CC1=C(C)C(=O)O2
6. CN=C(n1ccnc1)n1ccnc1
7. C#CCOc1cccc(-c2ncc3cc(NC(=O)CCl)ccc3n2)c1

Response given:
["> 1 µM", "43.9 µM", "> 100 µM", "> 100 µM", "> 100 µM", "> 100 µM", "> 100 µM"]

---

Exercise: state measured TGI for each of the molecules provided.
# Tested on: SK-MEL-28 melanoma
# measurement.notes: NCI tumour cell line growth inhibition, 48 h

[
  {
    "molecule": "Cc1c(O)ccc2c(O)c(NC(=O)c3ccc4c(c3)CCC(C)(C)O4)c(=O)oc12",
    "TGI": "> 100 µM"
  },
  {
    "molecule": "CCN(CC)CCC(CNc1ccnc2cc(Cl)ccc12)c1ccc(Cl)cc1 (stereo unspecified)",
    "TGI": "2.06 µM"
  },
  {
    "molecule": "NC(CCCCCP(=O)(c1ccccc1)C1C=CC=CC1)C(=O)O (stereo unspecified)",
    "TGI": "> 100 µM"
  },
  {
    "molecule": "O=[N+]([O-])c1cccc(C2=NN(c3ccccc3)C[N+](c3ccc(Br)cc3)=N2)c1",
    "TGI": "> 100 µM"
  },
  {
    "molecule": "C=C1C(=O)OC2CC(C)C(C(CC(C)=O)OC(C)=O)=CCC12 (stereo unspecified)",
    "TGI": "24.1 µM"
  },
  {
    "molecule": "CC(=O)Nc1ccc(S(=O)(=O)N2C(=O)CCC2C(=O)Nc2ccc(Br)cc2)cc1 (stereo unspecified)",
    "TGI": "20.9 µM"
  },
  {
    "molecule": "O=C(Nc1ccc(Br)cc1F)c1cc(F)ccc1O",
    "TGI": "1.84 µM"
  },
  {
    "molecule": "CCCC(=O)OCC1OC(n2ccc(N)nc2=O)C(OC(=O)CCC)C1OC(=O)CCC (stereo unspecified)",
    "TGI": "> 95.2 µM"
  },
  {
    "molecule": "O=C(Nc1ccc2ncccc2c1)Nc1ccc2ncccc2c1",
    "TGI": "> 100 µM"
  },
  {
    "molecule": "O=CCC1CCCCC1",
    "TGI": "> 100 µM"
  }
]

Continue with the next molecule.
Challenge: Give measured TGI for "COc1cc(-c2oc(=O)ccc2C#Cc2ccccn2)cc(OC)c1OC" (SK-MEL-28 melanoma).
Response given: > 100 µM
